# test_protocol: Liver microsome incubation (HLM Phase I and Phase I + II), LC-MS/MS
# Format: in vitro ADME, human
# experimental_parameters: HLM Phase I + II
Reported HLM Phase I + II T-1/2 values follow for various compounds
Quick note: give the figure in min, leave out the unit.

COc1ccc(-c2cn(-c3ccc(O)cc3)c(=O)c3c(O)cc(O)cc23)cc1 [Compound 15g]    1.6
O=c1c2ccc(O)cc2c(-c2ccc(C(F)(F)F)cc2)cn1-c1ccc(C(F)(F)F)cc1 [Compound 30]    7.9
O=c1c2ccc(O)cc2c(-c2ccccc2)cn1-c1ccc(O)cc1 [Compound 15a]    23.3
CS(=O)(=O)c1ccc(-c2cn(-c3ccc(O)cc3)c(=O)c3ccc(O)cc23)cc1 [Compound 37]    3.8

Entry under test: COc1ccc(-c2cn(-c3ccc(O)cc3)c(=O)c3ccc(O)cc23)cc1 [Compound 15b] . Its HLM Phase I + II T-1/2 was 3.7

Just so you know, measured HLM Phase I + II T-1/2 for O=c1c2c(O)cc(O)cc2c(-c2ccccc2)cn1-c1ccc(O)cc1 [Compound 15h] came out at 11.4

Recorded HLM Phase I + II T-1/2 (compound O=c1c2ccc(O)cc2c(-c2ccc(O)cc2)cn1-c1ccc(CBr)cc1 [Compound 11] ): 5.0

---

# assayed_system: ER-beta (Homo sapiens, UniProt Q92731)
# Sequence (Q92731 whole entry, species assumed): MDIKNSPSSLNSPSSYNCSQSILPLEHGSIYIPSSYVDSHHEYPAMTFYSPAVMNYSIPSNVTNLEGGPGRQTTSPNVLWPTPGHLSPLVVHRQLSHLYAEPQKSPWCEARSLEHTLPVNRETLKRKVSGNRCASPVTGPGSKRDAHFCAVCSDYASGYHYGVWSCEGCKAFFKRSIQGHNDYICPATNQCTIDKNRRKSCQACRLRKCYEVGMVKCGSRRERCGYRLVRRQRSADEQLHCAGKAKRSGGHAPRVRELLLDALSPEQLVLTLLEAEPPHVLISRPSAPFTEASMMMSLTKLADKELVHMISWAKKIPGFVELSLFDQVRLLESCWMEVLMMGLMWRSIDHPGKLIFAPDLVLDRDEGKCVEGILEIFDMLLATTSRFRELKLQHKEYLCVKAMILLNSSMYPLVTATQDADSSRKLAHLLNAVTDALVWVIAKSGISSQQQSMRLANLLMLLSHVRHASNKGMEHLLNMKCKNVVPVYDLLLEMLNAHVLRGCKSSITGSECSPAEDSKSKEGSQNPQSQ
# test_protocol: ER-beta transactivation (ERE-LUC luciferase) in HEK-293 cells;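 note: HEK-293 cells transiently transfected with an ER-β expression plasmid and ERE-LUC reporter, firefly luciferase read-out normalized to co-transfected Renilla luciferase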
# experimental_parameters: antagonist mode, in combination with estradiol; read-out: Antagonist ER-β
Known pIC50 of a selection of compounds
Please note pIC50 is a logarithmic value: minus log10 of concentration in mol/L. Answer with that number alone.

COc1ccc(-c2cn(-c3ccc(O)cc3)c(=O)c3c(O)cc(O)cc23)cc1 [Compound 15g]    7.65
O=c1c2ccc(O)cc2c(-c2ccc(C(F)(F)F)cc2)cn1-c1ccc(O)cc1    6.17
O=c1c2c(O)cc(O)cc2c(-c2ccccc2)cn1-c1ccc(O)cc1 [Compound 15h]    7.27
O=c1c2ccc(O)cc2c(-c2ccc(O)cc2)cn1-c1ccc(O)cc1    5.71

Briefly, pIC50 measured for O=c1c2c(O)cc(O)cc2c(Br)cn1-c1cccc(O)c1 : 5.66

Data point: O=c1c2ccc(O)cc2c(-c2ccccc2)cn1-c1ccc(O)cc1 [Compound 15a] ; pIC50 = 6.04

Value of measured pIC50 for the entry COc1ccc(-c2cn(-c3ccc(O)cc3)c(=O)c3ccc(O)cc23)cc1 [Compound 15b] : 6.89

---

# assayed_system: AKR1C3 (Homo sapiens, UniProt P42330)
# Sequence (P42330 1-323): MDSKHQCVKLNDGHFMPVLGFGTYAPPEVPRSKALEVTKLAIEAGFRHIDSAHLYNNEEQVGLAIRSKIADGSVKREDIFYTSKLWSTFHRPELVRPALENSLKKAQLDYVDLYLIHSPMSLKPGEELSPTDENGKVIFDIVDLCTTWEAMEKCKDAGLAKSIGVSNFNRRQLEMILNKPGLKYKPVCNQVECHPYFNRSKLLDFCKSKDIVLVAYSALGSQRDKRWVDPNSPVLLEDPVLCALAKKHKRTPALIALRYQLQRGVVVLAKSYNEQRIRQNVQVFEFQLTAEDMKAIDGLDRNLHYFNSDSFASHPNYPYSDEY
# test_protocol: Purified AKR1C3 enzyme assay, [14C]-A'dione to testosterone, TLC based
# Type: biochemical
# Design: GST (N); made in house; host or cells: bacterial culture, IPTG induced (E. coli BL21-DE3 is named only for the crystallography preparation)
# experimental_parameters: 10 μM inhibitor; purified AKR1C3 TLC based enzyme assay; read-out: AKR1C3 inhibition at 10 μM
assay_metric: inhibition at 10 µM (%)
Numbers only here, please. The scale is %.

Some solved entries appear below for comparison.
O=c1c2ccc(O)cc2c(-c2ccc(C(F)(F)F)cc2)cn1-c1ccc(F)cc1    10
O=c1c2ccc(O)cc2c(-c2ccc(C(F)(F)F)cc2)cn1-c1ccc(CBr)c(O)c1    50
O=c1c2ccc(O)cc2c(-c2ccc(O)cc2)cn1-c1ccc(CBr)cc1    55
O=C(O)c1ccc(-c2cn(-c3ccc(O)cc3)c(=O)c3ccc(O)cc23)cc1    42
COC(=N)c1cc(O)cc2c(-c3ccc(C(F)(F)F)c(F)c3)cn(-c3ccc(O)cc3)c(=O)c12 [Compound 102A]    0
O=c1c2ccc(O)cc2c(-c2ccc(C(F)(F)F)cc2)cn1-c1ccc(O)cc1    52
CS(=O)(=O)c1ccc(-c2cn(-c3ccc(O)cc3)c(=O)c3ccc(O)cc23)cc1    45

Form field inhibition at 10 µM, entry O=c1c2ccc(O)cc2c(-c2ccc(O)cc2)cn1-c1ccc(O)cc1 : 0
